assay: solubility in phosphate buffers of pH 5, 6, 7 and 8; type: physicochemical; conditions: aqueous buffer; phosphate buffer pH 7; read-out: solubility, pH 7
REPORTED METRIC: solubility (µg/mL)

>>> df
                                   compound  reported_metric  number
0  O=C(O)Cn1c(=O)c(=O)[nH]c2cc([N+](=O)[O-])c(-n3ccnc3)cc21 [Example 1]       solubility    3640

###

assay: solubility in phosphate buffers of pH 5, 6, 7 and 8; assay type: physicochemical; conditions: aqueous buffer; phosphate buffer pH 8; read-out: solubility, pH 8
REPORTED METRIC: solubility (µg/mL)

In [3]: df
Out[3]:
                                   compound  reported_metric  number
0  O=C(O)Cn1c(=O)c(=O)[nH]c2cc([N+](=O)[O-])c(-n3ccnc3)cc21 [Example 1]       solubility    5130

###

target: AMPA receptor; test: inhibitory activity against the binding of [3H]-AMPA (rat cerebral membrane); details: about 45 nM [3H]-AMPA, 45 minutes on ice water, non-specific: 10 μM quisqualic acid, read-out: Ki value, inhibition of [3H]-AMPA binding
pKi: −log10 of the molar value.
Recorded pKi by entry
REPORTED METRIC: pKi

                         structure_notation  number
0  O=C(O)Cn1c(=O)c(=O)[nH]c2cc(OCc3ccccc3)c(-n3ccnc3)cc21    7.15
1  O=C(O)Cn1c(=O)c(=O)[nH]c2cc([N+](=O)[O-])c(-n3ccnc3)cc21    6.14
2  O=C(O)Cn1c(=O)c(=O)[nH]c2cc(C(F)(F)F)c(-n3ccnc3)cc21    7.03

FYI, the data here is from patent US6096743A.
